Experiment: Cytotoxicity in mammalian cells (MTT assay)
Format: cell-based
Conditions: human, HFF cells, read-out: CC50 (Half Cytotoxic Concentration against HFF cells)
Procedure: HFF were seeded at 5 × 10^4 cells/well in 96-well microplates and incubated overnight to adhere to the plate. After that, the cells were incubated in the presence of increasing concentrations of the compounds for 72 h at 37 °C in a 5% CO2 humidified incubator. The viability of the cells was determined by the MTT assay as previously described. The medium in each well was replaced by PBS (100 µL/well), MTT (5 mg/mL) was added (20 µL/well), and the plate was incubated for 4 h at 37 °C. […]
readout-name: CC50 at 72 h

Problem: State the recorded CC50 at 72 h for this entry: `C=CCNc1nc(NCC=C)nc(N2CCN(C(c3ccc(F)cc3)c3ccc(F)cc3)CC2)n1`
Solution: > 20 µM

###

Form field: CC50 at 72 h (one value per entry).
Experiment: Cytotoxicity in mammalian cells (MTT assay)
Type: cell-based
Conditions: human, HFF, read-out: CC50 (Half Cytotoxic Concentration against HFF cells)
All answers are understood in µM, so give the number only.

Problem: Item `CC(C)C[C@H](NC(=O)[C@H](Cc1ccccc1)NC(=O)c1cnccn1)B(O)O` has what recorded CC50 at 72 h?
Solution: 0.079

We next turn to a different compound, shown below.
Problem: Data request, read-out CC50 at 72 h, for `Nc1nc(F)nc2c1ncn2[C@@H]1O[C@H](CO)[C@@H](O)[C@@H]1O`
Solution: 2.14
